Tested on: U2OS
Test: Multiplex assay against U2OS
Type: toxicity, cell-based
Conditions: human, 24 h, 1 µM, compound concentration 1 uM, replicate 2
As shown below, each of these molecules has a reported Population Fragmented Nuclei (%) value.
Give your result in % as a bare value.

> print(dat)
                                   molecule  measured.target                          quantity  measured.number
1  OC1(c2ccc(Cl)cc2)CCN(Cc2c[nH]c3ccccc23)CC1             U2OS  Population Fragmented Nuclei (%)                5
2  O=C1NCN(c2ccccc2)C12CCN(CCCOc1ccc(F)cc1)CC2 [SPIRAMIDE]             U2OS  Population Fragmented Nuclei (%)                7
3  CC[C@H](C)C(=O)O[C@H]1C[C@@H](C)C=C2C=C[C@H](C)[C@H](CC[C@@H]3C[C@@H](O)CC(=O)O3)[C@H]21             U2OS  Population Fragmented Nuclei (%)               22
4  CN1CCN(c2ccc(OC(F)(F)F)c(Nc3ncc4c(n3)-c3c(c(C(N)=O)nn3CCO)CC4)c2)CC1             U2OS  Population Fragmented Nuclei (%)               21
5  CCN(CC)CCCCNc1ncc2cc(-c3cc(OC)cc(OC)c3)c(NC(=O)NC(C)(C)C)nc2n1             U2OS  Population Fragmented Nuclei (%)               30
6  Cc1cc(C)cc(-c2cnc3cc(Cl)c(-c4cccc(O)c4)cc3c2OCCCN)c1             U2OS  Population Fragmented Nuclei (%)               11
7  C[C@@H](NCCCc1cccc(C(F)(F)F)c1)c1cccc2ccccc12.Cl [CINACALCET HYDROCHLORIDE]             U2OS  Population Fragmented Nuclei (%)                8

Then there is this molecule:
// Population Fragmented Nuclei (%) (U2OS) for CN1CCC[C@@H]1CCO[C@](C)(c1ccccc1)c1ccc(Cl)cc1.O=C(O)/C=C/C(=O)O [CLEMASTINE FUMARATE] = 14

Where these numbers come from: ChEMBL document CHEMBL4689842
